tested on: HCT-116; assay: Antiproliferative activity against human HCT116 cells expressing wild-type p53 after 72 hrs by MTT test; type: functional, cell-based; conditions: HCT-116, 72 h
# IC50 values compiled below
recorded_metric: IC50 (µM)

1) COc1cccc2c1C(=O)c1c(O)c3c(c(O)c1C2=O)C[C@@](O)(C(=O)CO)C[C@@H]3O[C@H]1C[C@H](N)[C@H](O)[C@H](C)O1 [DOXORUBICIN]: 1.4
2) CCOC(=O)C(N)Cc1c[nH]c2c(O)c3c(c(O)c12)C(=O)c1ccccc1C3=O (stereo not given): 14.9
3) NCCc1c[nH]c2c(O)c3c(c(O)c12)C(=O)c1ccccc1C3=O: 1.1
4) CC(N)Cc1c[nH]c2c(O)c3c(c(O)c12)C(=O)c1ccccc1C3=O (stereo not given): 4.8
